Reference source: PubChem BioAssay

test: E. coli DRC41 culture turbidity changes, primary screen, E. coli filamentation inducer project, strain DRC41, OD650, 48 h (AID 1152);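 also: E. coli MC1000 strain DRC41 lacking acrAB efflux pump and sulA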; conditions: E. coli DRC41 (acrAB sulA), higher = more signal, called active from +8 up or from −8 down
Mark 1 for reported z-score of 0.1 or greater; mark -1 for anything smaller.

OC[C@H]1O[C@H](C#Cc2ccccc2)C=C[C@@H]1O	1
CC(=O)OC[C@H]1O[C@H](CC=NO[C@@H](C)c2cc(-c3c(C)cc(C)cc3C)no2)C=C[C@@H]1OC(C)=O	1
CCOC(=O)CCN1C(=O)[C@H]2[C@H]3[C@H](O)[C@H](O)CC(=NNC(=O)OCC)[C@H]3CC[C@H]2C1=O	-1

Problem: Would you say `O=C1[C@H]2[C@H]3[C@H](O)[C@H](O)CC(=NOC[C@@H](O)COCc4ccco4)[C@@H]3CC[C@H]2C(=O)N1Cc1ccccc1` shows z-score at minimum 0.1?
Result: 1

Problem: Would you say `COCOc1ccc(Br)cc1C(=O)C=Cc1ccc2c(c1)OCO2` shows z-score at minimum 0.1?
Result: 1

Problem: Would you say `O=C1C[C@@H](O)[C@@H](O)[C@@H]2[C@@H]3C(=O)N(c4ccc(F)cc4F)C(=O)[C@@H]3CC[C@H]12` shows z-score at minimum 0.1?
Result: -1

Problem: Would you say `COc1ccc(O[C@H]2C=C[C@@H](C#Cc3ccccc3)O[C@@H]2CO)cc1` shows z-score at minimum 0.1?
Result: 1

Problem: Would you say `COc1ccc(COC(=O)NN=C2C[C@@H](O)[C@@H](O)[C@@H]3[C@@H]4C(=O)N(C(C)(C)C)C(=O)[C@@H]4CC[C@@H]23)cc1` shows z-score at minimum 0.1?
Result: 1

----------
assay: small-molecule microarray binders of probe aWnt5a, primary screen, biochemical, biotinylated probe, 635/667 nm fluorescence (AID 1113); settings: higher = more signal;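 also: score merges 667 nm fluorescence intensity with signal-to-noise per printed feature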
# composite z-score per record follows
The answer should be written as a number, with no unit following it.

In the examples that follow, each entry is paired with its recorded composite z-score.
O=C1C=C[C@@H](O)[C@@H]2[C@@H]3C(=O)N(Cc4ccccc4)C(=O)[C@@H]3CC[C@@H]12	-0.0758
CCOC(=O)[C@H](Cc1ccccc1)NC(=O)CCC1CC(OC(=O)NCc2cccc3ccccc23)CC2(CCCC(COC(=O)NCCc3ccc(Cl)cc3)O2)O1 (stereo not given in full)	-0.0738
CCCNC(=O)OC[C@H]1O[C@H](CCON=C[C@@H](C)[C@H](OCc2ccccc2)C(C)C)C=C[C@@H]1Oc1ccc(OC)cc1	-0.156

Problem: Answer with the recorded composite z-score for the compound listed here: C=CCOCC1CN2[C@@H](CC[C@@H](C)[C@@H]2c2ccc(Br)cc2)C(=O)O1 (stereo not given in full)
Result: -0.219

Problem: Answer with the recorded composite z-score for the compound listed here: `CC(C)[C@H](NC(=O)OC(C)(C)C)[C@@H](O)CC(=O)C(C)(C)C`
Result: -0.18

Problem: Answer with the recorded composite z-score for the compound listed here: `COc1ccc(COC(=O)NN=C2C[C@@H](O)[C@@H](O)[C@@H]3[C@@H]4C(=O)N(Cc5ccc6c(c5)OCO6)C(=O)[C@@H]4CC[C@H]23)cc1`
Result: 0.0438

Problem: Answer with the recorded composite z-score for the compound listed here: `CC(=O)OC[C@H]1O[C@H](CC=NO[C@H](C)c2cn([C@@H]3COC[C@H]3O)nn2)C=C[C@@H]1OC(C)=O`
Result: -0.0685

----------
molecular target: Pro-neuregulin-1, membrane-bound isoform (Homo sapiens); assay: NRG1 binders on small-molecule microarrays, primary screen, psychiatric disease protein project, biochemical, small-molecule microarray, fluorescence 635/667 (AID 1075); details: NRG1 binding, 635 nm fluorescence, higher = more signal;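 also: score combines 667 nm spot fluorescence with signal to noise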
experimental_endpoint: composite z-score
The answer should be written as a number, with no unit following it.

In the examples that follow, each entry is paired with its recorded composite z-score.
C[C@@H]1CC[C@H]2C(=O)OC(Cc3ccccc3)CN2[C@H]1c1ccc(Br)cc1 (some centres not stated)	0.485
CC[C@@H](c1ccccc1)n1c(=O)n2n(c1=O)[C@H]1[C@H](O)[C@@H]3O[C@@H]3C(=NOCc3ccccc3)[C@H]1CC2	0.834

Problem: Answer with the recorded composite z-score for the compound listed here: `C[C@@H]1CC[C@H]2C(=O)N3[C@@H](CC[C@@H](C)[C@@H]3c3ccc(Br)cc3)C(=O)N2[C@H]1c1ccc(Br)cc1`
Result: -0.0193

Problem: Answer with the recorded composite z-score for the compound listed here: `COc1ccc(O[C@H]2C=C[C@@H](c3ccccc3)O[C@@H]2CON=C2c3cc(OC)ccc3O[C@H](c3cccc(OC)c3)[C@H]2O)cc1`
Result: -0.139

Problem: Answer with the recorded composite z-score for the compound listed here: `CC(CCN1CCCc2nc(C)c(C)cc21)=NOC[C@@H](C)[C@H](OCc1ccccc1)C(C)C`
Result: -0.162

Problem: Answer with the recorded composite z-score for the compound listed here: `CC(=O)OC[C@H]1O[C@@H](ON=C2[C@H]3CCn4c(=O)n(-c5ccccc5)c(=O)n4[C@H]3[C@H](O)[C@@H]3O[C@H]23)[C@H](OC(C)=O)[C@@H](OC(C)=O)[C@@H]1OC(C)=O`
Result: 0.471

Problem: Answer with the recorded composite z-score for the compound listed here: `O=C1C[C@@H](O)[C@@H](O)[C@@H]2[C@@H]3C(=O)N(Cc4ccccc4)C(=O)[C@@H]3CC[C@H]12`
Result: 0.235

----------
assay: S. cerevisiae RM11-1a growth modifiers, primary screen, strain RM11-1a, OD600, basal, 24 h (AID 1177); details: OD600, 24 h, higher = more signal, called active from +8 up or from −8 down;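 also: cultures grown under basal conditions with no added stressor; test concentration not given here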
Classification by z-score follows these ranges: lower band: < -0.6; central band: ≥ -0.6 and < 0.4; upper band: ≥ 0.4

COc1ccc(COC(=O)NN=C2C[C@@H](O)[C@@H](O)[C@@H]3[C@@H]4C(=O)N([C@@H](C)c5ccccc5)C(=O)[C@@H]4CC[C@H]23)cc1	lower band

Problem: Assign a bin to `CC(C)[C@@H](OCc1ccccc1)[C@H](C)C=NOC[C@@H](O)[C@H]1O[C@@H]2OC(C)(C)O[C@@H]2[C@H]1O`
Result: upper band

Problem: Assign a bin to `C#CCCCON=C1[C@H]2CCn3c(=O)n(Cc4cc5c(cc4Cl)OCO5)c(=O)n3[C@H]2[C@H](O)[C@@H]2O[C@H]12`
Result: upper band

----------
test: binders of probe aFGF2 on microarray, primary screen, stem cell growth factor project, biochemical, small-molecule microarray, fluorescence 635/667 (AID 1067); conditions: higher = more signal;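 also: measures binding of biotinylated aFGF2 protein to printed compounds on slides; z-score merges feature fluorescence and signal-to-noise across triplicate slides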
experimental_endpoint: composite z-score
The answer should be written as a number, with no unit following it.

In the examples that follow, each entry is paired with its recorded composite z-score.
O=C1[C@H]2[C@H]3[C@H](O)[C@H](O)CC(=NOC[C@@H](O)COCc4ccco4)[C@@H]3CC[C@H]2C(=O)N1Cc1ccc2c(c1)OCO2	-0.292
CCOC(=O)[C@H](CC(C)C)NC(=O)CCC1CC(OC(=O)NCc2ccc3c(c2)OCO3)CC2(CCCC(COC(=O)NCCc3ccc(Cl)cc3)O2)O1 (some centres not stated)	-0.129
CCN1C(=O)[C@H]2[C@@H]3C(=CC[C@H]2C1=O)C(=O)[C@H]1O[C@H]1[C@H]3O	-0.0996
CC[C@@H](c1ccccc1)n1c(=O)n2n(c1=O)[C@H]1[C@H](O)[C@@H]3O[C@@H]3C(=NOCc3ccccc3)[C@H]1CC2	-0.172
CCN1C(=O)[C@H]2[C@H]3[C@H](O)[C@H](O)CC(=NOC[C@@H](O)COCc4ccco4)[C@H]3CC[C@H]2C1=O	-0.318
CC(C)=CCCC(C)=CCON=C1[C@H]2CCn3c(=O)n(-c4ccccc4)c(=O)n3[C@H]2[C@H](O)[C@@H]2O[C@H]12	0.0243

Now consider the entry below.
Problem: Answer with the recorded composite z-score for the molecule listed here: `CC(CCN1CCc2nc(-c3ccccc3)c(-c3ccccc3)cc2C1)=NO[C@H](C)c1cn([C@H](CO)Cc2ccccc2)nn1`
Result: -0.0569

----------
experiment: basal 3T3-L1 adipocyte mitochondrial potential changes, profiling panel, cell-based, JC-1 fluorescence, 3T3-L1 adipocytes, 24 h, 100 nL compound (AID 1168); details: JC-1 mitochondrial fluorescence, higher = more signal, called active from +8 up or from −8 down; also: test concentration not given here
Mark T for reported z-score of -0.08 or greater; mark F for anything smaller.

CO[C@H]1COC(=O)CC=C[C@@H](C)COC(=O)[C@H]2CCCN2C(=O)CC=C[C@H]1C	T
O=C1C=C[C@@H](O)[C@@H]2[C@@H]3C(=O)N(c4cccc(Oc5ccccc5)c4)C(=O)[C@@H]3CC[C@@H]12	T
CCOC(=O)CCN1C(=O)[C@H]2[C@H]3[C@H](O)[C@H](O)CC(=O)[C@@H]3CC[C@H]2C1=O	F

Moving on to the next compound.
Problem: Would you say `O=C1[C@H]2[C@H]3[C@H](O)[C@H](O)CC(=NOC[C@@H](O)COCc4ccco4)[C@@H]3CC[C@H]2C(=O)N1Cc1ccccc1` shows z-score at minimum -0.08?
Result: F
